Consider the following substances; for each one, report its pEC50.
Target: PACAP-R2 (Homo sapiens)
Construct: expressed in transfected cells; host or cells: CHO cells
Sequence (P32241 31-457, species assumed): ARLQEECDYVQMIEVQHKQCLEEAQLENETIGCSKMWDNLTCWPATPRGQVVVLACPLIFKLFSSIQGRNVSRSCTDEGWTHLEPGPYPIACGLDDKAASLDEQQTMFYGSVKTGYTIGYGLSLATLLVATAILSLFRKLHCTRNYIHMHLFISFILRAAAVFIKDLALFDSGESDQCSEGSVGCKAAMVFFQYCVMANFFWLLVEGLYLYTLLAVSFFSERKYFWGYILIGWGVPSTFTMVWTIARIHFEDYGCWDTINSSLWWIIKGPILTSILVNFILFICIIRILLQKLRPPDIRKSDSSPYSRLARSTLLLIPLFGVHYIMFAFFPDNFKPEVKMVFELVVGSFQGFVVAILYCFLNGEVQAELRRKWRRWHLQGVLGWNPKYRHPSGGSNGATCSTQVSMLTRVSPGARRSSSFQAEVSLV
Assay: Cyclic AMP SPA on CHO cells transfected with PACAP-R2
Format: cell-based
Conditions: cAMP SPA, concentration at which 50% of maximum PACAP27 activity is achieved, NA = no detectable activities, read-out: R2 EC50
No end group written: not given here.
Keep it numeric: pEC50 is minus log10 of the concentration in mol/L.

Provide pEC50, tested on PACAP-R2 (Homo sapiens), for HSDAVFTDNYTRLRKQMAAKKYLNSIKNRR [Peptide R3P147] .
7.00

Provide pEC50, tested on PACAP-R2 (Homo sapiens), for H-HSDAVFTDNYTRLRKQMAAKKYLNSIKNKRY [Peptide R3P55] .
7.30

Provide pEC50, tested on PACAP-R2 (Homo sapiens), for HSDAVFTDNYTRLRKQMAAKKYLNSIQNRI [rR3P184] .
8.00

Provide pEC50, tested on PACAP-R2 (Homo sapiens), for HSDAVFTDNYTRLRKQLAAKKYLNDILKGGT [Peptide R3P23] .
8.00

Provide pEC50, tested on PACAP-R2 (Homo sapiens), for HSDAVFTDNYTRLRKQMAWKKYLNSIKNKR [Peptide R3P114] .
7.70

Provide pEC50, tested on PACAP-R2 (Homo sapiens), for HSDAVFTDNYTRLRKQMAAHKYLNSIKNKRY [Peptide R3P73] .
7.30

Provide pEC50, tested on PACAP-R2 (Homo sapiens), for HSDGIFTDSYSRYRKQMAVKKYLAAVK-NH2 [PAC27] .
8.82

Provide pEC50, tested on PACAP-R2 (Homo sapiens), for H-HSDGIFTDSYSEYRKQMAVKKYLAAVL-NH2 [PAC12] .
6.82

Provide pEC50, tested on PACAP-R2 (Homo sapiens), for H-HSDAVFTDNYTRLRKQMAAKKYLNDIKKGGT [Peptide R3P20] .
6.48

---

Target: PACAP-R3 (Homo sapiens, UniProt P41587)
Sequence (P41587 24-438): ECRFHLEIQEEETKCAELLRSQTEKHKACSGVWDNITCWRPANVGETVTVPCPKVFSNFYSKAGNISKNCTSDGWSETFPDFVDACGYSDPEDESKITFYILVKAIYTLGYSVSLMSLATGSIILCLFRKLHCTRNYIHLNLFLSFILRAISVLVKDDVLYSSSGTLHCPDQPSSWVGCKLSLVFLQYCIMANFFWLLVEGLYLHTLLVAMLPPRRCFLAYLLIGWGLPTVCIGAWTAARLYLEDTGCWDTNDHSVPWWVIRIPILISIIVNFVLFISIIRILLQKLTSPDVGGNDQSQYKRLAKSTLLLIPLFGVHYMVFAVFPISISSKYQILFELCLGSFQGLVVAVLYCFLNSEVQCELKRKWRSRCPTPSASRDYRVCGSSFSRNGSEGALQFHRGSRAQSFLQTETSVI
Assay: Cyclic AMP SPA on CHO cells expressing PACAP R3
Assay type: cell-based
Parameters: expressed in transfected cells; host or cells: CHO cells (Geneticin selection)
Details: cAMP SPA, CHO cells transfected with PACAP-R3; concentration at which 50% of maximum PACAP27 activity is achieved; NA = no detectable activities; read-out: R3 EC50
No end group written: not given here.
value.kind: pEC50
Keep it numeric: pEC50 is minus log10 of the concentration in mol/L.

Provide pEC50, tested on PACAP-R3 (Homo sapiens, UniProt P41587), for HSDAVFTDNYTRLRKQMAAKKYLNSIKKK [Peptide R3P54] .
9.30

Provide pEC50, tested on PACAP-R3 (Homo sapiens, UniProt P41587), for HSDAVFTDNYTRLRKQMAAKKYLNSIKNRR [Peptide R3P147] .
9.70

Provide pEC50, tested on PACAP-R3 (Homo sapiens, UniProt P41587), for HSDGIFTDSYSRYRKQMAVKKYLSAVRHGQT-NH2 [Peptide R3P15] .
8.30

Provide pEC50, tested on PACAP-R3 (Homo sapiens, UniProt P41587), for HSDAVFTDNYTRLRKQMAIKKYLNSIKNKR [Peptide R3P103] .
10.30

Provide pEC50, tested on PACAP-R3 (Homo sapiens, UniProt P41587), for HSDAVFTDNYTRLRKQVAVKKYLQSIKNKRY [Peptide R3P82] .
9.40

Provide pEC50, tested on PACAP-R3 (Homo sapiens, UniProt P41587), for HSDAVFTDNYTRLRKQMAAKKYLNSIKKKRY [Peptide R3P52] .
9.40

Provide pEC50, tested on PACAP-R3 (Homo sapiens, UniProt P41587), for HSDAVFTDNYTRLRKQMAAKKYLNSIKNSR [Peptide R3P148] .
9.52

Provide pEC50, tested on PACAP-R3 (Homo sapiens, UniProt P41587), for HSDAVFTDNYTRLRKQVAAKKYLQSILKK [Peptide R3P85] .
9.74

Provide pEC50, tested on PACAP-R3 (Homo sapiens, UniProt P41587), for HSDAVFTDNYTRLRKQVAAKKYLQSIKK [Peptide R3P60] .
9.00

Provide pEC50, tested on PACAP-R3 (Homo sapiens, UniProt P41587), for H-HSDAVFTDNYTRLRKQMAAKKYLNSIKNKH [Peptide R3P159] .
9.30

Provide pEC50, tested on PACAP-R3 (Homo sapiens, UniProt P41587), for HSDAVFTDNYTRLRKQLAAKKYLNDIKK [Peptide R3P33] .
9.30

Provide pEC50, tested on PACAP-R3 (Homo sapiens, UniProt P41587), for HSDAVFTDNYTRLRKQVAVKKYLQSILKK [Peptide R3P89] .
10.22

Provide pEC50, tested on PACAP-R3 (Homo sapiens, UniProt P41587), for HSDAVFTDNYTRLRKQMAAKKYLNSIKNER [Peptide R3P137] .
9.52

Provide pEC50, tested on PACAP-R3 (Homo sapiens, UniProt P41587), for H-HSDAVFTDNYTRLRKQMAVKKYLNSIKN [Peptide R3P42] .
10.52

Provide pEC50, tested on PACAP-R3 (Homo sapiens, UniProt P41587), for HSDAVFTDNYTRLRKQMAAKKYLNSIKNRI [rR3P174] .
9.70

Provide pEC50, tested on PACAP-R3 (Homo sapiens, UniProt P41587), for HSDAVFTDNYTRLRKQMAAKKYLNSIKNKN [Peptide R3P164] .
9.52

Provide pEC50, tested on PACAP-R3 (Homo sapiens, UniProt P41587), for HSDAVFTDNYTRLRKQMAKKKYLNSIRNRI [rR3P191] .
8.57

Provide pEC50, tested on PACAP-R3 (Homo sapiens, UniProt P41587), for HSDAVFTDNYTRLRKQMAQKKYLNSIKNKR [Peptide R3P109] .
8.00

Provide pEC50, tested on PACAP-R3 (Homo sapiens, UniProt P41587), for HSDAVFTDNYTRLRKQMAAKKYLNSITNKR [Peptide R3P130] .
9.00

Provide pEC50, tested on PACAP-R3 (Homo sapiens, UniProt P41587), for H-HSDAVFTDNYTRLRKQMAAKKYLNSISNKR [Peptide R3P129] .
9.00

Provide pEC50, tested on PACAP-R3 (Homo sapiens, UniProt P41587), for HSDAVFTDNYTRLRKQVAAKKYLQSIKNKRY [Peptide R3P66] .
9.40

Provide pEC50, tested on PACAP-R3 (Homo sapiens, UniProt P41587), for HSDAVFTENYTKLRKQLAAKKYLNDLLNGGT [Peptide R3P10] .
7.96

Provide pEC50, tested on PACAP-R3 (Homo sapiens, UniProt P41587), for HSDAVFTDNYTRLRKQMAAKKYLNSIQNRI [rR3P184] .
9.43

Provide pEC50, tested on PACAP-R3 (Homo sapiens, UniProt P41587), for HSDAVFTDNYTRLRKQMAAKKYLNSINNKR [Peptide R3P125] .
8.70

Provide pEC50, tested on PACAP-R3 (Homo sapiens, UniProt P41587), for H-HSDAVFTDNYTRLRKQMAAKKYLNSIKNKD [Peptide R3P155] .
9.40

Provide pEC50, tested on PACAP-R3 (Homo sapiens, UniProt P41587), for HSDAVFTDNYTRLRKQLAVKKYLNSILN [Peptide R3P46] .
10.22

Provide pEC50, tested on PACAP-R3 (Homo sapiens, UniProt P41587), for HSDAVFTDNYTRLRKQMAKKKYLNSIQNRI [rR3P186] .
8.80

Provide pEC50, tested on PACAP-R3 (Homo sapiens, UniProt P41587), for HSDAVFTENYTKLRKQLAAKKYLNDLKK [Peptide R3P5] .
8.15

Provide pEC50, tested on PACAP-R3 (Homo sapiens, UniProt P41587), for H-HSDGIFTDSYSRYRKQLAAKKYLADVKKGGT [Peptide R3P37] .
8.40

Provide pEC50, tested on PACAP-R3 (Homo sapiens, UniProt P41587), for HSDAVFTDNYTRLRKQLAAKKYLNSIKNGGT [Peptide R3P30] .
9.40

Provide pEC50, tested on PACAP-R3 (Homo sapiens, UniProt P41587), for HSDAVFTDNYTRLRKQLAAKKYLNDIKKQ [Peptide R3P34] .
8.85

Provide pEC50, tested on PACAP-R3 (Homo sapiens, UniProt P41587), for HSDAVFTDNYTRLRKQVAAKKYLQSIKNK [Peptide R3P86] .
9.10

Provide pEC50, tested on PACAP-R3 (Homo sapiens, UniProt P41587), for HSDAVFTDQYTRLRKQLAAHKYLNTIKNKRY [Peptide R3P75] .
9.52

Provide pEC50, tested on PACAP-R3 (Homo sapiens, UniProt P41587), for HSDAVFTDNYTRLRKQIAAKKYLQTIKK [Peptide R3P61] .
9.10

Provide pEC50, tested on PACAP-R3 (Homo sapiens, UniProt P41587), for HSDAVFTDNYTRLRKQMAAKKYLNSIVNKR [Peptide R3P131] .
9.52

Provide pEC50, tested on PACAP-R3 (Homo sapiens, UniProt P41587), for HSDAVFTDNYTRLRKQVAAKKYLQSILKKR [Peptide R3P84] .
10.22

Provide pEC50, tested on PACAP-R3 (Homo sapiens, UniProt P41587), for HSDAVFTDNYTRLRKQVAAKKYLQSILNKRY [Peptide R3P92] .
10.70

Provide pEC50, tested on PACAP-R3 (Homo sapiens, UniProt P41587), for HSDAVFTDNYTRLRKQMASKKYLNSIKNRI [rR3P178] .
9.12

Provide pEC50, tested on PACAP-R3 (Homo sapiens, UniProt P41587), for H-HSDAVFTDNYTRLRKQMAAKKYLNSIKNKRY [Peptide R3P55] .
9.77

Provide pEC50, tested on PACAP-R3 (Homo sapiens, UniProt P41587), for HSDAVFTDNYTRLRKQLAAKKYLNDILKGGT [Peptide R3P23] .
9.37

Provide pEC50, tested on PACAP-R3 (Homo sapiens, UniProt P41587), for HSDAVFTDNYTRLRKQMAAKKYLNSIKKGGT [Peptide R3P26] .
9.26

Provide pEC50, tested on PACAP-R3 (Homo sapiens, UniProt P41587), for HSDAVFTDNYTRLRKQMAAKKYLNSIKNKP [Peptide R3P165] .
9.30

Provide pEC50, tested on PACAP-R3 (Homo sapiens, UniProt P41587), for HSDGIFTDSYSRYEKQMAVKKYLAAVL-NH2 [PAC14] .
8.80
